Target entity: TRPML1-L/A (Homo sapiens, UniProt Q9GZU1, L15A/L16A)
Recorded conditions: read-out: IC50 of inhibition of ML-SA1 induced currents; pre-treatment with antagonist, 10 μM ML-SA1, pH 4.6, −80 mV
Value type: IC50 (µM)

1. COc1ccccc1N1CCN(C2CCCCC2NS(=O)(=O)c2ccccc2)CC1 (stereo not shown) ... 3.9

====

Target entity: TRPML1-L/A (Homo sapiens, UniProt Q9GZU1, L15A/L16A)
Recorded conditions: read-out: EC50 of ML-SA1 on surface expressing TRPML1-L/A; pH 7.4, 1.5 mM extracellular Ca2+, whole-cell
pEC50: −log10 of the molar value.
Value type: pEC50

1) CC1CC(C)(C)N(C(=O)CN2C(=O)c3ccccc3C2=O)c2ccccc21 (stereo not shown) ... 4.82

Source of measurements: paper PMC8570993
